The measured values listed here are drawn from PubChem BioAssay (NCI).

System: 786-0 renal
assay_text: NCI-60 one-dose screen, 48 h
test_parameters: 10 µM unless noted
About 83,000 compounds went through this panel and 20% of them were active in at least one assay; those are over-represented in the sample as a whole. Calls of active or inactive are those of the source. How the source made its calls: active means growth percent below 10; inactive means the rest.
Response enum: active, inactive

Solved cases below.
CN(C)c1ccc(-c2cc(-c3ccc(Nc4nc(Nc5ccc(Cl)cc5)nc(Nc5ccc(Cl)cc5)n4)cc3)no2)cc1
inactive
CCN(CC)CCCCCCNc1cc(OC)c(Cl)c2cccnc12
inactive
CCOC(=O)c1c2ncccc2n2c(=O)n(-c3ccccc3C)nnc12
inactive
COc1ccc(/C=N/C2=C(C#N)C(c3ccc(OC)cc3)c3ccc4ccccc4c3O2)cc1 (stereo not drawn)
inactive
C=CCn1c(C)nc2cc(Nc3nc(N4CCCC4)nc4ccccc34)ccc21
inactive
CC1SC(c2ccc(OCc3ccccc3)cc2)N(NC(=O)C(O)(c2ccccc2)c2ccccc2)C1=O (stereo not drawn)
inactive

Would you mind telling me which call this test gave O=C(Cc1ccc(F)c(F)c1)Nc1cc(C2(C(F)(F)F)CC2)nn1Cc1ccccc1 ?
inactive

Would you mind telling me which call this test gave Cc1ccc(C(=NN=C(N)N)c2ccc(C)cc2)cc1 ?
active

Would you mind telling me which call this test gave CCCCc1ccc(Nc2ccc(Nc3ccc(CCCC)cc3S(=O)(=O)O)c3c2C(=O)c2ccccc2C3=O)c(S(=O)(=O)O)c1 ?
inactive

Would you mind telling me which call this test gave COC(=O)[C@H](CSC)N(C)C(=O)[C@@H]1CSSC[C@@H](NC(=O)c2nc3ccccc3cc2O)C(=O)NCC(=O)N1C ?
inactive

Would you mind telling me which call this test gave O=C(O)c1ccc2c(c1)CCC2 ?
inactive

Would you mind telling me which call this test gave COc1ccc(C2=NN(C(=O)c3cc(OC)c(OC)c(OC)c3)C(c3ccc(Cl)cc3)C2)cc1OC (stereo not drawn) ?
inactive

Would you mind telling me which call this test gave CCOC(=O)c1c(/C=C/C(=O)O)nc2ccccc2c1/C=C/c1ccccc1 ?
inactive

Would you mind telling me which call this test gave CCCCCCCCCCCCCCCCCCOc1ccc(CC(=O)OCC[N+]2(C)CCCC2)cc1 ?
inactive

Would you mind telling me which call this test gave Clc1ccc(-c2c3ccc(=[N+]4CCCCC4)cc-3oc3cc(N4CCCCC4)ccc23)cc1 ?
active

Would you mind telling me which call this test gave Nc1nc(N)c2c(n1)NC(c1ccccc1)C1CCc3ccccc3C1=N2 (stereo not drawn) ?
inactive

Would you mind telling me which call this test gave C(=N\Nc1ncc(-c2cc3cc4c(cc3o2)OCO4)s1)/c1ccco1 ?
active

====

Test system: CAKI-1 renal
assay_text: NCI-60 one-dose screen, 48 h (100 = growth as untreated, 0 = no growth, -100 = all killed)
test_parameters: 10 µM unless noted
Compounds without any hit were thinned out: in the full panel of roughly 83,000, 20% have a hit.
Please assign no (0) whenever growth is at or above 60%, and yes (1) whenever it is below.

Solved cases below.
CC(C)CC(NC(=O)CN(Cc1ccccc1)S(C)(=O)=O)C(=O)O (stereo not drawn)
no (0)
C[C@]12CC[C@@H]3c4cc(OC(F)F)c(O)cc4CC[C@H]3[C@@H]1CC[C@@H]2OS(N)(=O)=O
yes (1)
CCOC(=O)c1c(-c2ccc(Cl)cc2)c(C#N)c(=O)n(-c2ccccc2CC)c1N
no (0)
N=c1sc(Cc2ccc(Cl)cc2)cn1CC(=O)c1ccc(F)cc1
yes (1)
COC(=O)c1c2c(c(C)[n+]([O-])c1C)C(=O)C(NCc1ccc(F)cc1)=CC2=O
yes (1)
CC(=O)OC[C@H]1OC(Sc2sc(C(=O)c3ccc(Br)cc3)c(N)c2-c2nc3ccccc3s2)[C@H](OC(C)=O)[C@@H](OC(C)=O)[C@@H]1OC(C)=O (stereo partly drawn)
no (0)

Determine if CCN1C(=O)N(CC)C2Nn3c(s/c(=C4\C(=O)N(C)c5ccccc54)c3=O)=NC21 (stereo not drawn) shows growth strictly lower than 60%.
yes (1)

Determine if COc1ccc(/C=c2\nc3n(-c4ccccc4)c4nc5c6c(sc5c(=N)n4n-3c2=O)CCCC6)cc1 shows growth strictly lower than 60%.
no (0)

Determine if Cc1cc(=O)oc2c1ccc1oc(C#N)c(C)c12 shows growth strictly lower than 60%.
no (0)

Determine if COc1ccc(S(=O)(=O)NCCNc2nccc(-c3c(-c4cccc(F)c4)nc4sccn34)n2)cc1 shows growth strictly lower than 60%.
yes (1)

Determine if CC1CC(C(C)(C)C)C(=O)C(C(C)(C)C)C1 (stereo not drawn) shows growth strictly lower than 60%.
no (0)
